Hey, just so you know, these numbers are from the supplement of paper PMC10307832.

- Test system: HOP-62
- ASSAY SUMMARY: relative viability (nuclei count vs DMSO), 5 days (fraction); higher = more cells survive
- CONDITION: first compound 0.8 µM
METRIC: relative viability
Simply state the number, no unit and no words.

Name the reported relative viability value associated with the molecule Oc1nc(-c2ccc(C(F)(F)F)cc2)nc2c1CSCC2 [XAV939] + Nc1ncn([C@H]2C[C@H](O)[C@@H](CO)O2)c(=O)n1 [Decitabine] (partner 2 µM)
0.223

Name the reported relative viability value associated with the molecule C=C1C(=O)O[C@@H](CCCCCCCC)[C@@H]1C(=O)O [C-75] + C[C@@H](Oc1cc(-c2cnn(C3CCNCC3)c2)cnc1N)c1c(Cl)ccc(F)c1Cl [Crizotinib] (partner 1 µM)
0.81

Name the reported relative viability value associated with the molecule C=C1C(=O)O[C@@H](CCCCCCCC)[C@@H]1C(=O)O [C-75] + O=C(CCCCCCC(=O)Nc1ccccc1)NO [Vorinostat] (partner 1 µM)
0.629

###

- System: A-427
- ASSAY SUMMARY: relative viability (nuclei count vs DMSO), 5 days (fraction); higher = more cells survive
- CONDITION: first compound 0.1265 µM
So I've got a bunch of compounds here, and I need their relative viability values.
Simply state the number, no unit and no words.

Identify the measured relative viability of O=C(O)c1ccc(-c2c[nH]c3ncc(-c4ccccc4)cc23)cc1C1CCCC1 + CC(C)C[C@H](NC(=O)[C@H](Cc1ccccc1)NC(=O)c1cnccn1)B(O)O [Bortezomib] (partner 0.002 µM) for A-427.
0.949

Identify the measured relative viability of O=C(O)c1ccc(-c2c[nH]c3ncc(-c4ccccc4)cc23)cc1C1CCCC1 + CS(=O)(=O)N1CCN(Cc2cc3nc(-c4cccc5[nH]ncc45)nc(N4CCOCC4)c3s2)CC1 [Pictilisib] (partner 1 µM) for A-427.
0.738

Identify the measured relative viability of O=C(O)c1ccc(-c2c[nH]c3ncc(-c4ccccc4)cc23)cc1C1CCCC1 + Nc1nc2[nH]cc(CCc3ccc(C(=O)N[C@@H](CCC(=O)O)C(=O)O)cc3)c2c(=O)[nH]1 [Pemetrexed] (partner 0.2 µM) for A-427.
1.06

Identify the measured relative viability of O=C(O)c1ccc(-c2c[nH]c3ncc(-c4ccccc4)cc23)cc1C1CCCC1 + COc1cccc2cc(-c3nc([C@H]4CC[C@H](C(=O)O)CC4)n4ncnc(N)c34)[nH]c12 [OSI-027] (partner 0.5 µM) for A-427.
0.54

Identify the measured relative viability of O=C(O)c1ccc(-c2c[nH]c3ncc(-c4ccccc4)cc23)cc1C1CCCC1 + CC(=O)c1c(C)c2cnc(Nc3ccc(N4CCNCC4)cn3)nc2n(C2CCCC2)c1=O [Palbociclib] (partner 0.5 µM) for A-427.
0.526

###

- System: HCC-15
- ASSAY SUMMARY: relative viability (nuclei count vs DMSO), 5 days (fraction); higher = more cells survive
- CONDITION: first compound 0.04 µM
METRIC: relative viability
Simply state the number, no unit and no words.

Name the reported relative viability value associated with the compound O=C(O)c1ccc(-c2c[nH]c3ncc(-c4ccccc4)cc23)cc1C1CCCC1 + CC1(C)CCC(c2ccc(Cl)cc2)=C(CN2CCN(c3ccc(C(=O)NS(=O)(=O)c4ccc(N[C@H](CCN5CCOCC5)CSc5ccccc5)c(S(=O)(=O)C(F)(F)F)c4)cc3)CC2)C1 [Navitoclax] (partner 0.5 µM)
0.697

Name the reported relative viability value associated with the compound O=C(O)c1ccc(-c2c[nH]c3ncc(-c4ccccc4)cc23)cc1C1CCCC1 + O=C(CCCCCCC(=O)Nc1ccccc1)NO [Vorinostat] (partner 1 µM)
0.848

Name the reported relative viability value associated with the compound O=C(O)c1ccc(-c2c[nH]c3ncc(-c4ccccc4)cc23)cc1C1CCCC1 + Nc1ncn([C@H]2C[C@H](O)[C@@H](CO)O2)c(=O)n1 [Decitabine] (partner 2 µM)
0.641

Name the reported relative viability value associated with the compound O=C(O)c1ccc(-c2c[nH]c3ncc(-c4ccccc4)cc23)cc1C1CCCC1 + COc1cc2c(Oc3ccc(NC(=O)C4(C(=O)Nc5ccc(F)cc5)CC4)cc3F)ccnc2cc1OCCCN1CCOCC1 [Foretinib] (partner 0.25 µM)
1.11

###

So I've got a bunch of compounds here, and I need their relative viability values.
- Test system: SW 1573
- ASSAY SUMMARY: relative viability (nuclei count vs DMSO), 5 days (fraction); higher = more cells survive
- CONDITION: first compound 0.1581 µM
Simply state the number, no unit and no words.

Name the reported relative viability value associated with the compound CC1(C)CCC(c2ccc(Cl)cc2)=C(CN2CCN(c3ccc(C(=O)NS(=O)(=O)c4ccc(N[C@H](CCN5CCOCC5)CSc5ccccc5)c(S(=O)(=O)C(F)(F)F)c4)cc3)CC2)C1 [Navitoclax] + COc1cccc2cc(-c3nc([C@H]4CC[C@H](C(=O)O)CC4)n4ncnc(N)c34)[nH]c12 [OSI-027] (partner 0.5 µM)
0.562

Name the reported relative viability value associated with the compound CC1(C)CCC(c2ccc(Cl)cc2)=C(CN2CCN(c3ccc(C(=O)NS(=O)(=O)c4ccc(N[C@H](CCN5CCOCC5)CSc5ccccc5)c(S(=O)(=O)C(F)(F)F)c4)cc3)CC2)C1 [Navitoclax] + Cc1nc(NC(=O)N2CCC[C@H]2C(N)=O)sc1-c1ccnc(C(C)(C)C(F)(F)F)c1 [Alpelisib] (partner 2 µM)
0.796

Name the reported relative viability value associated with the compound CC1(C)CCC(c2ccc(Cl)cc2)=C(CN2CCN(c3ccc(C(=O)NS(=O)(=O)c4ccc(N[C@H](CCN5CCOCC5)CSc5ccccc5)c(S(=O)(=O)C(F)(F)F)c4)cc3)CC2)C1 [Navitoclax] + CC(C)C[C@H](NC(=O)[C@H](Cc1ccccc1)NC(=O)c1cnccn1)B(O)O [Bortezomib] (partner 0.002 µM)
0.796

Name the reported relative viability value associated with the compound CC1(C)CCC(c2ccc(Cl)cc2)=C(CN2CCN(c3ccc(C(=O)NS(=O)(=O)c4ccc(N[C@H](CCN5CCOCC5)CSc5ccccc5)c(S(=O)(=O)C(F)(F)F)c4)cc3)CC2)C1 [Navitoclax] + O=C(c1cc(Cc2n[nH]c(=O)c3ccccc23)ccc1F)N1CCN(C(=O)C2CC2)CC1 [Olaparib] (partner 8 µM)
0.431

###

So I've got a bunch of molecules here, and I need their relative viability values.
- System: NCI-H1395
- ASSAY SUMMARY: relative viability (nuclei count vs DMSO), 5 days (fraction); higher = more cells survive
- CONDITION: first compound 0.1 µM
Simply state the number, no unit and no words.

Name the reported relative viability value associated with the molecule NC(=O)Nc1cc(-c2cccc(F)c2)sc1C(=O)N[C@H]1CCCNC1 [AZD7762] + CS(=O)(=O)N1CCN(Cc2cc3nc(-c4cccc5[nH]ncc45)nc(N4CCOCC4)c3s2)CC1 [Pictilisib] (partner 1 µM)
0.674

Name the reported relative viability value associated with the molecule NC(=O)Nc1cc(-c2cccc(F)c2)sc1C(=O)N[C@H]1CCCNC1 [AZD7762] + O=C(CCCCCCC(=O)Nc1ccccc1)NO [Vorinostat] (partner 1 µM)
0.684

Name the reported relative viability value associated with the molecule NC(=O)Nc1cc(-c2cccc(F)c2)sc1C(=O)N[C@H]1CCCNC1 [AZD7762] + CS(=O)(=O)CCNCc1ccc(-c2ccc3ncnc(Nc4ccc(OCc5cccc(F)c5)c(Cl)c4)c3c2)o1 [Lapatinib] (partner 2 µM)
1.05

###

- Test system: NCI-H358
- ASSAY SUMMARY: relative viability (nuclei count vs DMSO), 5 days (fraction); higher = more cells survive
- CONDITION: first compound 0.8 µM
So I've got a bunch of compounds here, and I need their relative viability values.
Simply state the number, no unit and no words.

Name the reported relative viability value associated with the compound Oc1nc(-c2ccc(C(F)(F)F)cc2)nc2c1CSCC2 [XAV939] + O=C(c1cc(Cc2n[nH]c(=O)c3ccccc23)ccc1F)N1CCN(C(=O)C2CC2)CC1 [Olaparib] (partner 8 µM)
0.598

Name the reported relative viability value associated with the compound C=C1C(=O)O[C@@H](CCCCCCCC)[C@@H]1C(=O)O [C-75] + Nc1nc2[nH]cc(CCc3ccc(C(=O)N[C@@H](CCC(=O)O)C(=O)O)cc3)c2c(=O)[nH]1 [Pemetrexed] (partner 0.2 µM)
0.168

Name the reported relative viability value associated with the compound Oc1nc(-c2ccc(C(F)(F)F)cc2)nc2c1CSCC2 [XAV939] + NC(=O)Nc1cc(-c2cccc(F)c2)sc1C(=O)N[C@H]1CCCNC1 [AZD7762] (partner 0.2 µM)
0.344

Name the reported relative viability value associated with the compound C=C1C(=O)O[C@@H](CCCCCCCC)[C@@H]1C(=O)O [C-75] + COc1cccc2cc(-c3nc([C@H]4CC[C@H](C(=O)O)CC4)n4ncnc(N)c34)[nH]c12 [OSI-027] (partner 0.5 µM)
0.691
